Listed below: viability, T/C values for each entry.
system: 496974-208-R-J2-PDC complex spheroids, growth % test/control; test: Anticancer human tumor 496974-208-R-J2-PDC patient-derived pancreatic carcinoma cell line growth inhibition [CLK]; conditions: second compound 1 µM; first compound 0.3 µM; stronger effect = lower value
ENDPOINT LABEL: viability, T/C (%)

>>> measured_value("NC(=O)C(=Cn1cnc(-c2cc(C(F)(F)F)cc(C(F)(F)F)c2)n1)c1cncnc1 + CN1CCN(c2cc(C(=O)Nc3cc4cc(-c5cnn(C)c5)ccc4cn3)ccn2)CC1")
0.44
>>> measured_value("CC(C)CC(NC(=O)C(Cc1ccccc1)NC(=O)c1cnccn1)B(O)O (stereo not given) + CN1CCN(c2cc(C(=O)Nc3cc4cc(-c5cnn(C)c5)ccc4cn3)ccn2)CC1")
1.33
>>> measured_value("NC(=O)C(=Cn1cnc(-c2cc(C(F)(F)F)cc(C(F)(F)F)c2)n1)c1cncnc1 + CNC(=O)c1ccc(Nc2nc(OC3CCCC3)c3c(-c4ccc5nc(C)oc5c4)c[nH]c3n2)c(OC)c1")
16.1
>>> measured_value("C=CC(=O)Nc1cc(Nc2nccc(-c3cn(C)c4ccccc34)n2)c(OC)cc1N(C)CCN(C)C + CNC(=O)c1ccc(Nc2nc(OC3CCCC3)c3c(-c4ccc5nc(C)oc5c4)c[nH]c3n2)c(OC)c1")
40.9
>>> measured_value("C=CC(=O)Nc1cc(Nc2nccc(-c3cn(C)c4ccccc34)n2)c(OC)cc1N(C)CCN(C)C + CN1CCN(c2cc(C(=O)Nc3cc4cc(-c5cnn(C)c5)ccc4cn3)ccn2)CC1")
0.65

* * *

test system: 496974-208-R-J2-PDC complex spheroids, growth % test/control; test: Anticancer human tumor 496974-208-R-J2-PDC cell line growth inhibition [CLK]; conditions: curve of first compound; second compound 0.1 µM;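 further: spheroids exposed to the drugs for 7 days before readout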
ENDPOINT LABEL: IC50 (µM)

>>> measured_value("CC1COCCN1c1cc(C2(S(C)(=N)=O)CC2)nc(-c2ccnc3[nH]ccc23)n1 (stereo not drawn) + CN1CCN(c2cc(C(=O)Nc3cc4cc(-c5cnn(C)c5)ccc4cn3)ccn2)CC1")
1.93
>>> measured_value("C#Cc1c(F)ccc2cc(O)cc(-c3ncc4c(N5CC6CCC(C5)N6)nc(OCC56CCCN5CC(F)C6)nc4c3F)c12 (stereo not drawn) + CNC(=O)c1ccc(Nc2nc(OC3CCCC3)c3c(-c4ccc5nc(C)oc5c4)c[nH]c3n2)c(OC)c1")
0.0335

* * *

Listed below: viability, T/C values for each entry.
system: 496974-208-R-J2-PDC complex spheroids, growth % test/control; test: Anticancer human tumor 496974-208-R-J2-PDC cell line growth inhibition [CLK]; conditions: second compound 0.316 µM; first compound 1 µM; stronger effect = lower value;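 further: spheroids exposed to the drugs for 7 days before readout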;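 on viability, T/C: 100% = DMSO vehicle control wells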
ENDPOINT LABEL: viability, T/C (%)

>>> measured_value("COc1ccc([C@@H](O)c2cc(-c3ncnc4cc(N5CCOCC5)ccc34)c(F)cc2Cl)nn1 + CN1CCN(c2cc(C(=O)Nc3cc4cc(-c5cnn(C)c5)ccc4cn3)ccn2)CC1")
3.72
>>> measured_value("C=CC(=O)N1CCN(c2nc(=O)n(-c3c(C)ccnc3C(C)C)c3nc(-c4c(O)cccc4F)c(F)cc23)C(C)C1 (stereo unspecified) + CN1CCN(c2cc(C(=O)Nc3cc4cc(-c5cnn(C)c5)ccc4cn3)ccn2)CC1")
10.3
>>> measured_value("CC1(C)CCC(CN2CCN(c3ccc(C(=O)NS(=O)(=O)c4ccc(NCC5CCOCC5)c([N+](=O)[O-])c4)c(Oc4cnc5[nH]ccc5c4)c3)CC2)=C(c2ccc(Cl)cc2)C1 + CNC(=O)c1ccc(Nc2nc(OC3CCCC3)c3c(-c4ccc5nc(C)oc5c4)c[nH]c3n2)c(OC)c1")
85.3
>>> measured_value("Nc1ccccc1NC(=O)c1ccc(CNC(=O)OCc2cccnc2)cc1 + CN1CCN(c2cc(C(=O)Nc3cc4cc(-c5cnn(C)c5)ccc4cn3)ccn2)CC1")
3.64
>>> measured_value("C=C(F)C(=O)N1CCN(c2nc(OCC3CCCN3C)nc3c2CCN(c2cccc4cccc(Cl)c24)C3)CC1CC#N (stereo unspecified) + CN1CCN(c2cc(C(=O)Nc3cc4cc(-c5cnn(C)c5)ccc4cn3)ccn2)CC1")
7.85
>>> measured_value("Nc1ccn(C2OC(CO)C(O)C2(F)F)c(=O)n1 (stereo unspecified) + CN1CCN(c2cc(C(=O)Nc3cc4cc(-c5cnn(C)c5)ccc4cn3)ccn2)CC1")
5.91
